Reference source for all entries: PubChem BioAssay AID1963432

Parameter: viability, T/C. Scope: all listed entries.
test system: SYO-1 complex spheroid growth, percent test/control; assay: Anticancer human tumor SYO-1 cell line growth inhibition [Asc]; conditions: second compound 1 µM; first compound 0.1 µM; stronger effect = lower value;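 also: compound exposure lasted 7 days after spheroids grew 3 days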;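 as to viability, T/C: 100% = DMSO vehicle control viability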
Just the number in %, nothing appended.

Sample answers from the record:
| compound | subject of test | viability, T/C (%) |
| --- | --- | --- |
| NC1CCC(NC2CC2c2ccccc2)CC1 (configuration not stated) + Cc1c(S(C)(=O)=O)c(-c2cc(F)cc(N3CCN(c4ccc(NS(=O)(=O)c5ccc(NC(CCN6CCC(C(=O)OCCCP(=O)(O)O)CC6)CSc6ccccc6)c(S(=O)(=O)C(F)(F)F)c5)cc4)CC3)c2)c(-c2ccc(Cl)cc2)n1C(C)C | SYO-1 complex spheroid growth, percent test/control | 85.8 |
| C#Cc1c(F)ccc2cc(O)cc(-c3ncc4c(N5CC6CCC(C5)N6)nc(OCC56CCCN5CC(F)C6)nc4c3F)c12 (configuration not stated) + CNC(C)C(=O)NC1CN(S(=O)(=O)c2cccc(S(=O)(=O)N3CCC4CCC(C(=O)NC(c5ccccc5)c5ccccc5)N4C(=O)C(NC(=O)C(C)NC)C3)c2)CCC2CCC(C(=O)NC(c3ccccc3)c3ccccc3)N2C1=O | SYO-1 complex spheroid growth, percent test/control | 106 |
| C=CC(=O)N1CCN(c2nc(=O)n(-c3c(C)ccnc3C(C)C)c3nc(-c4c(O)cccc4F)c(F)cc23)C(C)C1 (configuration not stated) + CNC(C)C(=O)NC1CN(S(=O)(=O)c2cccc(S(=O)(=O)N3CCC4CCC(C(=O)NC(c5ccccc5)c5ccccc5)N4C(=O)C(NC(=O)C(C)NC)C3)c2)CCC2CCC(C(=O)NC(c3ccccc3)c3ccccc3)N2C1=O | SYO-1 complex spheroid growth, percent test/control | 98.1 |

Exam item: Can you look up viability, T/C on SYO-1 complex spheroid growth, percent test/control for C#Cc1c(F)ccc2cc(O)cc(-c3ncc4c(N5CC6CCC(C5)N6)nc(OCC56CCCN5CC(F)C6)nc4c3F)c12 (configuration not stated) + Cc1c(S(C)(=O)=O)c(-c2cc(F)cc(N3CCN(c4ccc(NS(=O)(=O)c5ccc(NC(CCN6CCC(C(=O)OCCCP(=O)(O)O)CC6)CSc6ccccc6)c(S(=O)(=O)C(F)(F)F)c5)cc4)CC3)c2)c(-c2ccc(Cl)cc2)n1C(C)C ?
Marked response: 86.6

Exam item: Can you look up viability, T/C on SYO-1 complex spheroid growth, percent test/control for CCN1CCN(Cc2ccc(Nc3ncc(F)c(-c4cc(F)c5nc(C)n(C(C)C)c5c4)n3)nc2)CC1 + CNC(C)C(=O)NC1CN(S(=O)(=O)c2cccc(S(=O)(=O)N3CCC4CCC(C(=O)NC(c5ccccc5)c5ccccc5)N4C(=O)C(NC(=O)C(C)NC)C3)c2)CCC2CCC(C(=O)NC(c3ccccc3)c3ccccc3)N2C1=O ?
Marked response: 110

Exam item: Can you look up viability, T/C on SYO-1 complex spheroid growth, percent test/control for NC1CCC(NC2CC2c2ccccc2)CC1 (configuration not stated) + CNC(C)C(=O)NC1CN(S(=O)(=O)c2cccc(S(=O)(=O)N3CCC4CCC(C(=O)NC(c5ccccc5)c5ccccc5)N4C(=O)C(NC(=O)C(C)NC)C3)c2)CCC2CCC(C(=O)NC(c3ccccc3)c3ccccc3)N2C1=O ?
Marked response: 86.4

Exam item: Can you look up viability, T/C on SYO-1 complex spheroid growth, percent test/control for CCN1CCN(Cc2ccc(Nc3ncc(F)c(-c4cc(F)c5nc(C)n(C(C)C)c5c4)n3)nc2)CC1 + Cc1c(S(C)(=O)=O)c(-c2cc(F)cc(N3CCN(c4ccc(NS(=O)(=O)c5ccc(NC(CCN6CCC(C(=O)OCCCP(=O)(O)O)CC6)CSc6ccccc6)c(S(=O)(=O)C(F)(F)F)c5)cc4)CC3)c2)c(-c2ccc(Cl)cc2)n1C(C)C ?
Marked response: 106

----------
Test system: SYO-1 complex spheroid growth, percent test/control
Test: Anticancer human tumor SYO-1 cell line growth inhibition [Asc];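 also: compound exposure lasted 7 days after spheroids grew 3 days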;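 as to viability, T/C: 100% = DMSO vehicle control viability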
Details: second compound 3.16 µM; first compound 10 µM; stronger effect = lower value
Text: Multicellular complex tumor spheroid response to apoptosis pathway targeting inhibitors Alrizomadlin, Pelcitoclax, and Dasminapant in combination with a variety of drugs and investigational agents in selected tumor cell lines […] Compounds. […] If the clinical Cmax for an agent had not been determined, the highest concentration tested was 10 microM. […]
measurement name: viability, T/C

Exam item: Can you look up viability, T/C on SYO-1 complex spheroid growth, percent test/control for O=C(c1cc(Cc2n[nH]c(=O)c3ccccc23)ccc1F)N1CCN(C(=O)C2CC2)CC1 + Cc1c(S(C)(=O)=O)c(-c2cc(F)cc(N3CCN(c4ccc(NS(=O)(=O)c5ccc(NC(CCN6CCC(C(=O)OCCCP(=O)(O)O)CC6)CSc6ccccc6)c(S(=O)(=O)C(F)(F)F)c5)cc4)CC3)c2)c(-c2ccc(Cl)cc2)n1C(C)C ?
Marked response: 1.72%

----------
system: SYO-1 complex spheroid growth, percent test/control; assay: Anticancer human tumor SYO-1 cell line growth inhibition [Asc]; conditions: second compound 0.01 µM; first compound 0.01 µM; stronger effect = lower value;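 also: compound exposure lasted 7 days after spheroids grew 3 days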;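 as to viability, T/C: 100% = DMSO vehicle control viability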
measurement name: viability, T/C (%)
Just the number in %, nothing appended.

| molecule | measurement name | test value |
| --- | --- | --- |
| COc1c(OCCCN2CCOCC2)ccc2c3n(c(=NC(=O)c4cnc(N)nc4)nc12)CCN3 + CNC(C)C(=O)NC1CN(S(=O)(=O)c2cccc(S(=O)(=O)N3CCC4CCC(C(=O)NC(c5ccccc5)c5ccccc5)N4C(=O)C(NC(=O)C(C)NC)C3)c2)CCC2CCC(C(=O)NC(c3ccccc3)c3ccccc3)N2C1=O | viability, T/C | 109 |
| O=C(c1ccc(F)c(F)c1Nc1ccc(I)cc1F)N1CC(O)([C@@H]2CCCCN2)C1 + CNC(C)C(=O)NC1CN(S(=O)(=O)c2cccc(S(=O)(=O)N3CCC4CCC(C(=O)NC(c5ccccc5)c5ccccc5)N4C(=O)C(NC(=O)C(C)NC)C3)c2)CCC2CCC(C(=O)NC(c3ccccc3)c3ccccc3)N2C1=O | viability, T/C | 105 |
| NC1CCC(NC2CC2c2ccccc2)CC1 (stereo not given) + CNC(C)C(=O)NC1CN(S(=O)(=O)c2cccc(S(=O)(=O)N3CCC4CCC(C(=O)NC(c5ccccc5)c5ccccc5)N4C(=O)C(NC(=O)C(C)NC)C3)c2)CCC2CCC(C(=O)NC(c3ccccc3)c3ccccc3)N2C1=O | viability, T/C | 89.4 |
| Cn1ncnc1[C@H]1c2n[nH]c(=O)c3cc(F)cc(c23)N[C@@H]1c1ccc(F)cc1 + CNC(C)C(=O)NC1CN(S(=O)(=O)c2cccc(S(=O)(=O)N3CCC4CCC(C(=O)NC(c5ccccc5)c5ccccc5)N4C(=O)C(NC(=O)C(C)NC)C3)c2)CCC2CCC(C(=O)NC(c3ccccc3)c3ccccc3)N2C1=O | viability, T/C | 91.8 |

Turning to the following molecule.
Exam item: # lookup: viability, T/C of CCN1CCN(Cc2ccc(Nc3ncc(F)c(-c4cc(F)c5nc(C)n(C(C)C)c5c4)n3)nc2)CC1 + CNC(C)C(=O)NC1CN(S(=O)(=O)c2cccc(S(=O)(=O)N3CCC4CCC(C(=O)NC(c5ccccc5)c5ccccc5)N4C(=O)C(NC(=O)C(C)NC)C3)c2)CCC2CCC(C(=O)NC(c3ccccc3)c3ccccc3)N2C1=O
Marked response: 114

----------
Parameter: pIC50. Scope: all listed entries.
System: SYO-1 complex spheroid growth, percent test/control
Test: Anticancer human tumor SYO-1 cell line growth inhibition [Asc];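 also: compound exposure lasted 7 days after spheroids grew 3 days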
Settings: curve of first compound; second compound 0.1 µM
Text: Multicellular complex tumor spheroid response to apoptosis pathway targeting inhibitors Alrizomadlin, Pelcitoclax, and Dasminapant in combination with a variety of drugs and investigational agents in selected tumor cell lines […] Compounds. […] If the clinical Cmax for an agent had not been determined, the highest concentration tested was 10 microM. […]
Would you please state pIC50, meaning minus log10 of the concentration in mol/L, as a bare number?

Sample answers from the record:
| compound | measurement name | test value |
| --- | --- | --- |
| O=C(c1cc(Cc2n[nH]c(=O)c3ccccc23)ccc1F)N1CCN(C(=O)C2CC2)CC1 + Cc1c(S(C)(=O)=O)c(-c2cc(F)cc(N3CCN(c4ccc(NS(=O)(=O)c5ccc(NC(CCN6CCC(C(=O)OCCCP(=O)(O)O)CC6)CSc6ccccc6)c(S(=O)(=O)C(F)(F)F)c5)cc4)CC3)c2)c(-c2ccc(Cl)cc2)n1C(C)C | pIC50 | 5.73 |
| C=C(F)C(=O)N1CCN(c2nc(OCC3CCCN3C)nc3c2CCN(c2cccc4cccc(Cl)c24)C3)CC1CC#N (stereo not drawn) + Cc1c(S(C)(=O)=O)c(-c2cc(F)cc(N3CCN(c4ccc(NS(=O)(=O)c5ccc(NC(CCN6CCC(C(=O)OCCCP(=O)(O)O)CC6)CSc6ccccc6)c(S(=O)(=O)C(F)(F)F)c5)cc4)CC3)c2)c(-c2ccc(Cl)cc2)n1C(C)C | pIC50 | 5.47 |
| CCN1C(C(=O)NC23CCC(C(=O)O)(CC2)CC3)C(c2cccc(Cl)c2F)C2(C(=O)Nc3cc(Cl)ccc32)C12CCCCC2 (stereo not drawn) + CNC(C)C(=O)NC1CN(S(=O)(=O)c2cccc(S(=O)(=O)N3CCC4CCC(C(=O)NC(c5ccccc5)c5ccccc5)N4C(=O)C(NC(=O)C(C)NC)C3)c2)CCC2CCC(C(=O)NC(c3ccccc3)c3ccccc3)N2C1=O | pIC50 | 6.96 |

Turning to the following compound.
Exam item: # lookup: pIC50 of CCN1C(C(=O)NC23CCC(C(=O)O)(CC2)CC3)C(c2cccc(Cl)c2F)C2(C(=O)Nc3cc(Cl)ccc32)C12CCCCC2 (stereo not drawn) + Cc1c(S(C)(=O)=O)c(-c2cc(F)cc(N3CCN(c4ccc(NS(=O)(=O)c5ccc(NC(CCN6CCC(C(=O)OCCCP(=O)(O)O)CC6)CSc6ccccc6)c(S(=O)(=O)C(F)(F)F)c5)cc4)CC3)c2)c(-c2ccc(Cl)cc2)n1C(C)C
Marked response: 6.90
